- assay.text: Food effect and relative bioavailability crossover study, Compound (1) vs sodium oxybate
- measurement.conditions: human, plasma, po, 7.25 g, Compound (1) plasma T1/2, Mean, 7.25 g Compound (1) oral, Fasted
property: half-life

Task item: Which measured half-life value corresponds to `CC(C)[C@H](N)C(=O)OCCCC(=O)O` ?
Reply: 32.4 min

====

- assay.text: Single ascending dose study, plasma pharmacokinetics of Compound (1) and GHB
- Type: in vivo, human
- measurement.conditions: human, plasma, po, 1.5 g, Cohort 3 (1.50 g) single oral dose, fasted; read-out: Compound (1) plasma Cmax, Mean
property: Cmax (ng/mL)
One number for each entry, in ng/mL.

Task item: Which measured Cmax value corresponds to `CC(C)[C@H](N)C(=O)OCCCC(=O)O` ?
Reply: 3360

====

- assay.text: Single ascending dose study, plasma pharmacokinetics of Compound (1) and GHB
- Format: in vivo, human
- measurement.conditions: human, plasma, po, 0.1 g, Cohort 1 (0.10 g) single oral dose, fasted; read-out: Compound (1) plasma t1/2, Mean (converted)
property: half-life (min)
Numbers only, in min.

Task item: Which measured half-life value corresponds to CC(C)[C@H](N)C(=O)OCCCC(=O)O [Compound (1), 4-((L-valyl)oxy)butanoic acid] ?
Reply: 42

====

- assay.text: Multiple ascending dose study, plasma pharmacokinetics of Compound (1) and GHB
- Format: in vivo, human
- measurement.conditions: human, plasma, oral, 6 g/day, Cohort 10 (6.0 g/day in a single dose), Dosing Day 4; read-out: Compound (1) plasma AUC0-tlast, Mean
property: AUC(0-t) (ng·h/mL)
Numbers only, in ng·h/mL.

Task item: Which measured AUC(0-t) value corresponds to `CC(C)[C@H](N)C(=O)OCCCC(=O)O` ?
Reply: 17100

====

- assay.text: Single ascending dose study, plasma pharmacokinetics of Compound (1) and GHB
- Type: in vivo, human
- measurement.conditions: human, plasma, po, 6 g, Cohort 6 (6.00 g) single oral dose, fasted; read-out: Compound (1) plasma AUC0-tlast, Mean
property: AUC(0-t) (ng·h/mL)
Answers are plain numbers, in ng·h/mL.

Task item: Which measured AUC(0-t) value corresponds to `CC(C)[C@H](N)C(=O)OCCCC(=O)O` ?
Reply: 18400

====

- assay.text: Food effect and relative bioavailability crossover study, Compound (1) vs sodium oxybate
- measurement.conditions: human, plasma, po, 7.25 g, Compound (1) plasma AUC0-inf, Median, 7.25 g Compound (1) oral, Fed
property: AUC(0-inf)
Report as: number unit

Task item: Which measured AUC(0-inf) value corresponds to `CC(C)[C@H](N)C(=O)OCCCC(=O)O` ?
Reply: 29100 ng·h/mL

====

- assay.text: Single ascending dose study, plasma pharmacokinetics of Compound (1) and GHB
- Assay type: in vivo, human
- measurement.conditions: human, plasma, po, 0.1 g, Cohort 1 (0.10 g) single oral dose, fasted; read-out: Compound (1) plasma t1/2, Median (converted)
property: half-life (min)
Give bare numbers, in min.

Task item: Which measured half-life value corresponds to `CC(C)[C@H](N)C(=O)OCCCC(=O)O` ?
Reply: 42.6

====

- assay.text: Food effect and relative bioavailability crossover study, Compound (1) vs sodium oxybate
- measurement.conditions: human, plasma, po, 7.25 g, Compound (1) plasma T1/2, Median, 7.25 g Compound (1) oral, Fasted
property: half-life (min)
Give bare numbers, in min.

Task item: Which measured half-life value corresponds to CC(C)[C@H](N)C(=O)OCCCC(=O)O [Compound (1), 4-((L-valyl)oxy)butanoic acid] ?
Reply: 21

====

- assay.text: Food effect and relative bioavailability crossover study, Compound (1) vs sodium oxybate
- measurement.conditions: human, plasma, po, 7.25 g, Compound (1) plasma AUC0-inf, Mean, 7.25 g Compound (1) oral, Fed
property: AUC(0-inf) (ng·h/mL)
One number for each entry, in ng·h/mL.

Task item: Which measured AUC(0-inf) value corresponds to `CC(C)[C@H](N)C(=O)OCCCC(=O)O` ?
Reply: 29000

====

- assay.text: Single ascending dose study, plasma pharmacokinetics of Compound (1) and GHB
- Format: in vivo, human
- measurement.conditions: human, plasma, po, 1.5 g, Cohort 3 (1.50 g) single oral dose, fasted; read-out: Compound (1) plasma Cmax, Median
property: Cmax (ng/mL)
Numbers only, in ng/mL.

Task item: Which measured Cmax value corresponds to CC(C)[C@H](N)C(=O)OCCCC(=O)O [Compound (1), 4-((L-valyl)oxy)butanoic acid] ?
Reply: 2920

====

- assay.text: Single ascending dose study, plasma pharmacokinetics of Compound (1) and GHB
- Format: in vivo, human
- measurement.conditions: human, plasma, po, 7.25 g, Cohort 7 (7.25 g) single oral dose, fasted; read-out: Compound (1) plasma Cmax, Mean
property: Cmax
Report as: number unit

Task item: Which measured Cmax value corresponds to `CC(C)[C@H](N)C(=O)OCCCC(=O)O` ?
Reply: 22100 ng/mL

====

- assay.text: Multiple ascending dose study, plasma pharmacokinetics of Compound (1) and GHB
- Format: in vivo, human
- measurement.conditions: human, plasma, oral, 6 g/day, Cohort 10 (6.0 g/day in a single dose), Dosing Day 4; read-out: Compound (1) plasma AUC0-inf, Median
property: AUC(0-inf) (µg·h/mL)
Answers are plain numbers, in µg·h/mL.

Task item: Which measured AUC(0-inf) value corresponds to `CC(C)[C@H](N)C(=O)OCCCC(=O)O` ?
Reply: 19

====

- assay.text: Single ascending dose study, plasma pharmacokinetics of Compound (1) and GHB
- Format: in vivo, human
- measurement.conditions: human, plasma, po, 6 g, Cohort 6 (6.00 g) single oral dose, fasted; read-out: Compound (1) plasma AUC0-inf, Mean
- Experimental: The plasma concentrations of Compound (1) and GHB in plasma in healthy human subjects were measured using liquid chromatography tandem mass-spectroscopy and evaluated using PHOENIX™ WINNONLIN® version 8.1 (Pharsight Corporation, USA) and MICROSOFT® EXCEL® (Microsoft Corporation, USA). […] Plasma samples were obtained at various times following oral administration and the plasma concentrations of Compound (1) and GHB were measured.
property: AUC(0-inf) (ng·h/mL)
Answers are plain numbers, in ng·h/mL.

Task item: Which measured AUC(0-inf) value corresponds to CC(C)[C@H](N)C(=O)OCCCC(=O)O [Compound (1), 4-((L-valyl)oxy)butanoic acid] ?
Reply: 18400

====

- assay.text: Multiple ascending dose study, plasma pharmacokinetics of Compound (1) and GHB
- Assay type: in vivo, human
- measurement.conditions: human, plasma, oral, 6 g/day, Cohort 8 (6.0 g/day divided into equal 2 doses), Dosing Day 4; read-out: Compound (1) plasma AUC0-tlast, Median
property: AUC(0-t) (ng·h/mL)
Give bare numbers, in ng·h/mL.

Task item: Which measured AUC(0-t) value corresponds to `CC(C)[C@H](N)C(=O)OCCCC(=O)O` ?
Reply: 14800

====

- assay.text: Single ascending dose study, plasma pharmacokinetics of Compound (1) and GHB
- Assay type: in vivo, human
- measurement.conditions: human, plasma, po, 0.1 g, Cohort 1 (0.10 g) single oral dose, fasted; read-out: Compound (1) plasma AUC0-tlast, Median
property: AUC(0-t)
Report as: number unit

Task item: Which measured AUC(0-t) value corresponds to `CC(C)[C@H](N)C(=O)OCCCC(=O)O` ?
Reply: 250 ng·h/mL

====

- assay.text: Single ascending dose study, plasma pharmacokinetics of Compound (1) and GHB
- Format: in vivo, human
- measurement.conditions: human, plasma, po, 4.5 g, Cohort 5 (4.50 g) single oral dose, fasted; read-out: Compound (1) plasma Cmax, Mean
property: Cmax (ng/mL)
Numbers only, in ng/mL.

Task item: Which measured Cmax value corresponds to `CC(C)[C@H](N)C(=O)OCCCC(=O)O` ?
Reply: 12800

====

- assay.text: Single ascending dose study, plasma pharmacokinetics of Compound (1) and GHB
- Assay type: in vivo, human
- measurement.conditions: human, plasma, po, 6 g, Cohort 6 (6.00 g) single oral dose, fasted; read-out: Compound (1) plasma Cmax, Mean
property: Cmax
Report as: number unit

Task item: Which measured Cmax value corresponds to `CC(C)[C@H](N)C(=O)OCCCC(=O)O` ?
Reply: 17600 ng/mL

====

- assay.text: Food effect and relative bioavailability crossover study, Compound (1) vs sodium oxybate
- measurement.conditions: human, plasma, po, 7.25 g, Compound (1) plasma AUC0-tlast, Median, 7.25 g Compound (1) oral, Fed
property: AUC(0-t) (ng·h/mL)
Give bare numbers, in ng·h/mL.

Task item: Which measured AUC(0-t) value corresponds to CC(C)[C@H](N)C(=O)OCCCC(=O)O [Compound (1), 4-((L-valyl)oxy)butanoic acid] ?
Reply: 29000

====

- assay.text: Food effect and relative bioavailability crossover study, Compound (1) vs sodium oxybate
- measurement.conditions: human, plasma, po, 7.25 g, plasma Compound (1) AUC0-tlast, Adjusted Geometric Mean, 7.25 g Compound (1) oral, Fed
property: AUC(0-t) (ng·h/mL)
Answers are plain numbers, in ng·h/mL.

Task item: Which measured AUC(0-t) value corresponds to `CC(C)[C@H](N)C(=O)OCCCC(=O)O` ?
Reply: 27000
